biological target: T1, human Gal3 (Homo sapiens, UniProt P17931); assay: Epitope binning, sandwich format, SPR Carterra LSA (Example 8); type: binding
T1 construct: 6xHis (linker-spaced) (C); purchased AcroBio (Acro Biosystems) GA3-H5129
T1 sequence (P17931 whole entry): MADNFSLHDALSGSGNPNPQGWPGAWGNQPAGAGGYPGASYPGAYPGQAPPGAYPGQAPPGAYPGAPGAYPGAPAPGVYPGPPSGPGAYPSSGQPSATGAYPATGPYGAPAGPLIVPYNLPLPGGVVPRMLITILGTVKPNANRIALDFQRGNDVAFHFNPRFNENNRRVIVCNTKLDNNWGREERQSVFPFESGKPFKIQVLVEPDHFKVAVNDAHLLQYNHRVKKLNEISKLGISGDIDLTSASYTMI
observation_type: epitope bin (mutual competitive binding for Gal3)
Give only the figure.

Exercise: Fill in reported epitope bin (mutual competitive binding for Gal3) for this entry: 849.5H1: anti-Gal3 antibody (antibody, V domains shown) VH: QVQLKESGPVLVAPSQSLSITCTVSGFSLTSYGIHWVRQPPGKGLEWLGVIWAGGSTNYNSALMSRLSISKDNSKSQVFLKMNSLQIDDTAMYYCAKPPHDYDQAWFAYWGQGTLITVSA VL: DIQMNQSPSSLSASLGDTITITCHASQNINVWLSWYQQKPGNIPKLLIYQASNLHTGVPSRFSGRGSGTGFTLTISSLQPEDIATYYCQQGQSSPFTFGSGTKLEIK
Solution: 21
